# Experimental system: E3 ubiquitin-protein ligase XIAP (Homo sapiens) (UniProt P98170)
# Sequence (P98170 whole entry, looked up): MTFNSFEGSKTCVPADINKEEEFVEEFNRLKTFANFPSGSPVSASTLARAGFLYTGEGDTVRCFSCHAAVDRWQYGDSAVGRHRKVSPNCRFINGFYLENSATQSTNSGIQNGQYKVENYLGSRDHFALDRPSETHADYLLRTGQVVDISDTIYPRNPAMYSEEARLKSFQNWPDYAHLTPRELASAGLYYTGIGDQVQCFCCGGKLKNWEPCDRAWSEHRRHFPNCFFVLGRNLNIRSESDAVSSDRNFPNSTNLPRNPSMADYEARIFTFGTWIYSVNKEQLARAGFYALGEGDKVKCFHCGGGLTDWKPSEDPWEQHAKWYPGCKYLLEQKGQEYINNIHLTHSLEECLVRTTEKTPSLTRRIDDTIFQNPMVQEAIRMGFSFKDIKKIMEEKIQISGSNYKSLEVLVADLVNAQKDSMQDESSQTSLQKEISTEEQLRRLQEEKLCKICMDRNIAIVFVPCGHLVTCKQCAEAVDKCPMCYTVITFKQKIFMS
# Protocol: XIAP binders, primary screen, biophysical, small-molecule microarray, fluorescence 635 nm (AID 1181);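 also: score merges 667 nm emission and signal to noise over triplicate slides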
# Test settings: small-molecule microarray binding, higher = more signal
Listed next: entries and their corresponding composite z-score.
Number only, no unit.

Can you look up the measured composite z-score of O=C1C[C@]2(c3ccc([N+](=O)[O-])cc3)C(=O)N(CC(F)(F)F)c3cc(CO)ccc3[C@H]2N1C1CCCCC1 for me?
-0.273

Fill in: composite z-score of [N-]=[N+]=NCc1ccccc1[C@@H]1OC(c2ccc(OCCCO)cc2)=N[C@]1(Cc1ccccc1)C(=O)NCC(O)CO (some centres not stated) is ___
-0.0294

Name the recorded composite z-score for C=C(COC)/C(=C/C[C@@H](OC(=O)c1ccncc1)c1ccc(CO)o1)c1cc(C(=O)OC)ccc1OC .
1.7

Recorded composite z-score of O=C1O[C@@H](c2ccccc2)[C@@H](c2ccccc2)N2[C@@H](c3ccccc3OCCO)[C@]3(C(=O)Nc4ccc(C#CC5=CCCCC5)cc43)[C@@H](C(=O)N3CCCCCCC3)[C@H]12 , please.
1.56

Returns the measured composite z-score for the input compound. Input: O=C1c2ccccc2[C@](Cc2ccccc2I)(C(=O)NCC(F)(F)F)[C@H](c2ccc(CO)cc2)N1Cc1ccccc1Cl
-0.0663

Entry CCOC(=O)C[C@H]1[C@H](OC(=O)c2ccc(C(=O)c3ccccc3)cc2)[C@@H](NC(=O)c2ccccc2)c2cc(OCCCO)ccc2N1C(=O)c1ccc2ccccc2n1 : reported composite z-score = ?
0.0997

Fill in: composite z-score of C=C[C@H](CO)NS(=O)(=O)c1ccc(Br)cc1 is ___
-0.0559

---

# Protocol: inhibitors of hydroxyurea-induced Chk1 phosphorylation, primary screen, imaging, HeLa, phospho-Chk1 nuclear intensity (AID 1187); also: test concentration not given here
# Test settings: hydroxyurea-induced phospho-Chk1 immunofluorescence imaging, higher = more signal
Observed property: z-score
Note: the reply should be a number with no unit written.

molecule=COc1cc(COC(C)=O)ccc1OC(C)=O observed_property=z-score value_observed=-1.53
molecule=COCCCNC(=O)[C@@]1(C)c2ccccc2C(=O)N(C(C)C)[C@H]1c1ccc(CO)cc1 observed_property=z-score value_observed=-0.397
molecule=CN(C)C(=O)[C@]1(Cc2ccccc2N=[N+]=[N-])N=C(c2ccc(OCCCO)cc2)O[C@@H]1c1ccccc1N=[N+]=[N-] observed_property=z-score value_observed=-1.55
molecule="COc1cc(NN2C(C(O)c3ccco3)C=CC3C(=O)N(c4ccccc4)C(=O)C32)cc(OC)c1OC (stereo unspecified)" observed_property=z-score value_observed=-0.416
molecule=COCCOC(=O)N1C(=O)[C@@]2(c3ccccc31)[C@H](c1ccc(O)cc1)N1[C@H](c3ccccc3)[C@H](c3ccccc3)OC(=O)[C@H]1[C@@H]2C(=O)Nc1nc2ccccc2s1 observed_property=z-score value_observed=0.221

Using the record for Cc1ccc(S[C@]2(C(=O)NCCCN(C)C)CC(=O)N(Cc3cc(C(F)(F)F)cc(C(F)(F)F)c3)[C@@H]2c2ccc(CO)cc2I)cc1 , report its z-score.
0.201

---

Measured z-score values are reported for all entries that follow.
# Protocol: FRG1 promoter luciferase signal modulators, primary screen, FRG1 inhibition for FSHD, cell-based, C2C12 myotubes, firefly/Renilla luciferase, luminescence (AID 1084)
# Test settings: higher = more signal, called active from +8 up or from −8 down
Calls of active or inactive are those of the source.

line_notation=COC(=O)C(CC#Cc1ccc2c(c1)[C@]1(C(=O)N2)[C@H](c2ccc(OCCO)cc2)N2[C@H](c3ccccc3)[C@H](c3ccccc3)OC(=O)[C@H]2[C@@H]1C(=O)Nc1nc2ccccc2s1)C(=O)OC value_observed="2.62 (inactive)"

Query: z-score; subject: COc1cc2c(cc1OC)CN(C(=O)[C@@H]1[C@H]3C(=O)O[C@H](c4ccccc4)[C@H](c4ccccc4)N3[C@H](c3ccc(O)cc3)[C@@]13C(=O)Nc1ccccc13)CC2
0.421 (inactive)

Given O=C1C[C@]2(c3ccc([N+](=O)[O-])cc3)C(=O)N(CC(F)(F)F)c3cc(CO)ccc3[C@H]2N1C1CCCCC1 , state its recorded z-score.
0.0655 (inactive)
